Tested on: N2a-APP695 cells
Experiment: MTS cell viability assay in the same wells as the ELISA
Settings: MTS assay, N2a-APP695 cells; concentration above which toxic
# Toxicity (concentration in brackets) listing for each entry below

Answered examples (8):
1) CC[C@H](CO)Nc1nc(N(C)Cc2ccc(-c3ccccn3)cc2)c2ncn(C(C)C)c2n1 ... > 31 µM
2) CC[C@H](CO)Nc1nc(N(C)Cc2cccc(OC)c2)c2ncn(C(C)C)c2n1 ... > 100 µM
3) CC[C@H](CO)Nc1nc(N(C)Cc2ccccc2)c2ncn(Cc3ccccc3)c2n1 ... > 12 µM
4) CC[C@@H](CO)Nc1nc(N(C)Cc2ccc(-c3ccccn3)cc2)c2ncn(C(C)C)c2n1 ... > 12 µM
5) CC(C)n1cnc2c(OCc3ccccc3)nc(OCc3ccccc3)nc21 ... > 12 µM
6) CC[C@H](CO)Nc1nc(N(C)Cc2ccccc2)c2ncn(C(C)C)c2n1 ... > 31 µM
7) CCN(CC)CCNc1nc(N(CC)Cc2ccccc2)c2ncn(C3CCCC3)c2n1 ... > 12 µM
8) CC[C@H](CO)Nc1nc(N2CCc3ccccc3C2)c2ncn(C(C)C)c2n1 ... > 31 µM

molecule "CC[C@H](CO)Nc1nc(N(Cc2ccccc2)C(C)C)c2ncn(C(C)C)c2n1" , Toxicity (concentration in brackets) observed: > 12 µM

The recorded Toxicity (concentration in brackets) for "CC[C@H](CO)Nc1nc(N2CCc3ccccc32)c2ncn(C(C)C)c2n1" is > 31 µM

Short answer for "CC[C@@H](CO)Nc1nc(N(C)Cc2ccc(F)cc2)c2ncn(C(C)C)c2n1" : Toxicity (concentration in brackets) was > 12 µM

# credit: patent EP2664619B1
